Overview of reported EC50 across a group of compounds:
- assayed_target: mouse TGR5 receptor (Mus musculus)
- Construct: expressed in transfected cells; host or cells: HEK293-EBNA (293 c18, ATCC CRL10852), Hygromycin B selection
- Sequence (Q80SS6 1-329): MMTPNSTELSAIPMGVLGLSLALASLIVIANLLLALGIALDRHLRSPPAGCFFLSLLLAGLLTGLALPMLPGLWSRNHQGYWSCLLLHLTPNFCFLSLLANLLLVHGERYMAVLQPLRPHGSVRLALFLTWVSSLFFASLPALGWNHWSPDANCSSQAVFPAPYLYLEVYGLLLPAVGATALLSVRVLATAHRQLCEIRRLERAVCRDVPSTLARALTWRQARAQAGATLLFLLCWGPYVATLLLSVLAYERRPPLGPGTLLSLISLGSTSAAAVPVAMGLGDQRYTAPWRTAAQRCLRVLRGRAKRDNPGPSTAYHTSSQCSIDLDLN
- assay_notes: Mouse TGR5 cAMP production assay (HTRF, Cisbio cAMP HiRange)
- Assay type: cell-based
- reported_conditions: HEK293-EBNA cells overexpressing mouse TGR5, HTRF cAMP HiRange; coded A-D
- Procedure: Mouse TGR5 cAMP Production Assay We evaluated compounds of the present invention for their ability to induce cAMP production in HEK-EBNA cells overexpressing the mouse TGR5 receptor. […] In this second cAMP production assay, the cAMP production was measured in 384-well low volume plates (Greiner; cat #784075) using the Cisbio™ cAMP HiRange HTRF Assay Kit (Cisbio) according to the manufacturer's protocol. […]

Sample answers from the record:
compound | assayed_target | reported
Cc1c(Cl)cccc1S(=O)(=O)N[C@@H](C)c1cccc(-c2ccnn2C)c1 | mouse TGR5 receptor (Mus musculus) | 1 to 30 µM
CCOC(=O)C[C@H](NS(=O)(=O)c1ccccc1C(F)(F)F)c1cccc(-c2ccncc2C)c1 [Compound 18A] | mouse TGR5 receptor (Mus musculus) | < 0.1 µM
Cc1cnccc1-c1cccc(C(CCCCC#N)NS(=O)(=O)c2cccc(Cl)c2C)c1 (stereo not shown) | mouse TGR5 receptor (Mus musculus) | 0.1 to 0.999 µM
Cc1cnccc1-c1cccc(C(C)(C)NS(=O)(=O)c2cc(Br)ccc2C)c1 | mouse TGR5 receptor (Mus musculus) | 0.1 to 0.999 µM
COc1cnccc1-c1cccc(C(C)(C)NS(=O)(=O)c2cc(Cl)ccc2[N+](=O)[O-])c1 | mouse TGR5 receptor (Mus musculus) | < 0.1 µM
CCc1cnccc1-c1cccc(C2CN(CCCC(=O)O)CCN2S(=O)(=O)c2cccc(Cl)c2C)c1 (stereo not shown) [Compound 52AA] | mouse TGR5 receptor (Mus musculus) | < 0.1 µM

Kindly consider the entry below.
Summary for this compound, Cc1cnccc1-c1cccc(C2CCCCN2S(=O)(=O)c2ccccc2C(F)(F)F)c1 (stereo not shown) : EC50 is 0.1 to 0.999 µM
